Taken from the supplement of paper PMC6555819.

Test system: PPARg:RXRa (NR concentration 180 nM, RXRa partner concentration 90 nM)
Assay: PBM binding z-score (relative to random genomic background probes); higher = stronger binding; sequences stand for … in GC…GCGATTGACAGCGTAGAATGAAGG
Parameter: PBM binding z-score

Sample "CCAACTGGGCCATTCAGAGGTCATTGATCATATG" — what was its PBM binding z-score? 2.89

Entry "CGTCCAAGGTCAGCACGTCAGTGAAAGCGACGTG" please 2.38

Entry "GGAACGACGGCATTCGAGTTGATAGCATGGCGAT" please 0.532

Entry "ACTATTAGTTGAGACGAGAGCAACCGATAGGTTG" please 0.493

Entry "AGAACGAGGGCAATTAGTTGATAGCACGGGTGGC" please 1.31

Entry "ATCTCTAGGTAACAAGATCAGTGAAAGAGAGGAC" please 1.09

Entry "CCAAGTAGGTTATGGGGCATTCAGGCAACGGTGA" please 5.23

Entry "TCTCGGAGAACACGAAAGGTCAGAGCTCGACATC" please 0.977

Entry "CCTACTGGGCCACGAAAGGTCATTGACTCAGTGA" please 4.93

Entry "TCTATTAGTTGATTAGGGCAACCCAAACAGCGGA" please 0.509

Entry "TCACATAGGTAATACAGGTGAAAGTCGGCATCTA" please 1.04

Entry "TCTTGTAGATCAATAGACGTTAAGAAAGTGCGCT" please -0.0755

Entry "TATATTAGTTGATTAGGGCAACCGAAACAGCGGA" please 0.578

Entry "GCTAGCAGGCCATTTGGGTCAGTCAATGACGGGC" please 0.221

Entry "GCTAGCTGGTCAGTAAAAGGTCACACACCGGTCG" please 2.43

Entry "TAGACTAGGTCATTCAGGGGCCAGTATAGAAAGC" please 5.02

Entry "CCTCGGAGGACAGAAGGTCAGAGATGTCCGCTTT" please 0.383
